Data origin, for the record: PubChem BioAssay (Tox21)

assay: qHTS assay to identify small molecule agonists of the vitamin D receptor (VDR) signaling pathway - cell viability counter screen (AID 743224); settings: VDR-bla HEK293T viability, CellTiter-Glo luminescence, 16 h; series mostly up to 62.6 µM; note: nearly all actives have a fitted effect of over 50% in size
Results filed as inconclusive are left out. Calls of active or inactive are those of the source. Calls come from the whole dose curve; as a rule, active = well fitted cell-killing curve with a large enough effect in the repeat runs; inconclusive = weak or mixed curves, or effect the other way; inactive = no such curve, though single readings can be large or run the other way.
Give your call using only these classes: Y for active, N for inactive

**Q:** Fill in: this test's call for `C=CC(=O)OCCO` is ___
**A:** N

**Q:** Test call for this compound, please: `CCOc1cc(Oc2ccc(C(F)(F)F)cc2Cl)ccc1[N+](=O)[O-]`
**A:** N

**Q:** Would you mind telling me which call this test gave `CC(C)Oc1cc(-n2nc(C(C)(C)C)oc2=O)c(Cl)cc1Cl` ?
**A:** Y

**Q:** Assay outcome for CC(O)CCO (stereo not given) : what was it?
**A:** N

**Q:** I would be grateful if you could indicate the recorded call for C=C(C)C(=O)OCC1CO1 (stereo not given) .
**A:** N

**Q:** Per the assay record, what outcome was assigned to `c1nc[nH]n1` ?
**A:** N

**Q:** Hey, what did the test say about `CC(C)(c1cc(Cl)c(O)c(Cl)c1)c1cc(Cl)c(O)c(Cl)c1` ?
**A:** N

**Q:** Outcome? `COP(=S)(OC)Oc1ccc([N+](=O)[O-])cc1`
**A:** N

**Q:** Please share the test call associated with `C1=Cc2cccc3cccc1c23` .
**A:** N

**Q:** What is the recorded call for this compound in the test? `O=Cc1ccco1`
**A:** N

**Q:** Recorded call for CCOC(=O)C(C)OC(=O)c1cc(Oc2ccc(C(F)(F)F)cc2Cl)ccc1[N+](=O)[O-] (stereo not given) ?
**A:** N

**Q:** Called result for `Cc1ccc(N)c(N)c1`
**A:** N

**Q:** For `Clc1nc(Cl)nc(Cl)n1` , what call appears in the results of this test?
**A:** N

**Q:** What classification did `Cc1cc(Cl)ccc1OCCCC(=O)O` end up with in this test?
**A:** N

**Q:** Per the assay record, what outcome was assigned to `C=CCN(CC=C)C(=O)C(Cl)Cl` ?
**A:** N
